molecular target: Pim-3 (h) (Homo sapiens); construct: purchased Millipore; assay: Kinase Profiling Assay; assay type: biochemical; details: 100 μM
VALUE_TYPE: % activity (%)
Could you give me the number in %? Just the number is fine.

INSERT INTO measurements (seq_text, value_type, experimental_value) VALUES
  ('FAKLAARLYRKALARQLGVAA [MMI-0300]', '% activity', 80),
  ('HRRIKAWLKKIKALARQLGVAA (Mammalian) [MMI-0500]', '% activity', 37),
  ('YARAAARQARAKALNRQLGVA (Mammalian) [MMI-0200]', '% activity', 94);

Would you kindly look at the next entry?
Item: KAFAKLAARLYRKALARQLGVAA [MMI-0400] Test system: Pim-3 (h) (Homo sapiens) Read-out: % activity Value: ?
80

====

Catalogue of % activity values
target: BRK (h) (Homo sapiens, UniProt Q13882); experiment: Kinase Profiling Assay; format: biochemical; settings: 100 μM
Sequence (Q13882 whole entry): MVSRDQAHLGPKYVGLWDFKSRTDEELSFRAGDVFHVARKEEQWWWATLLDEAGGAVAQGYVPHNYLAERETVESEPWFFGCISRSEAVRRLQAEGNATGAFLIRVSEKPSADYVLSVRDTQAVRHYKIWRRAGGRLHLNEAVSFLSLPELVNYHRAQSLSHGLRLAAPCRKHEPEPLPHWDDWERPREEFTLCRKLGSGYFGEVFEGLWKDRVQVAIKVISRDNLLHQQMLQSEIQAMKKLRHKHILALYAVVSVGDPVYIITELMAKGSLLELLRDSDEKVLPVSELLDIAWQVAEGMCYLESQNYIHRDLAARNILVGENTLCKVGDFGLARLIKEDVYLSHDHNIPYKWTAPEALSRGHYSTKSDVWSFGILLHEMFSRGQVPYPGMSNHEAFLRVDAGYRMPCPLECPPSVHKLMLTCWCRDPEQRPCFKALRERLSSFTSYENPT
Could you give me the number in %? Just the number is fine.

INSERT INTO assay_data (seq_text, experimental_value) VALUES
  ('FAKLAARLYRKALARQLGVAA [MMI-0300]', 35);

I have this sequence here, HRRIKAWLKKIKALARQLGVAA (Mammalian) [MMI-0500] , and I need its recorded % activity.
41

I have this sequence here, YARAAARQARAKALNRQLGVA (Mammalian) [MMI-0200] , and I need its recorded % activity.
127

I have this sequence here, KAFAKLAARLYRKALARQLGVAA [MMI-0400] , and I need its recorded % activity.
18

====

Catalogue of % activity values
molecular target: Aurora-B (h) (Homo sapiens, UniProt Q96GD4); assay: Kinase Profiling Assay; assay type: biochemical; details: 100 μM
Sequence (Q96GD4 whole entry): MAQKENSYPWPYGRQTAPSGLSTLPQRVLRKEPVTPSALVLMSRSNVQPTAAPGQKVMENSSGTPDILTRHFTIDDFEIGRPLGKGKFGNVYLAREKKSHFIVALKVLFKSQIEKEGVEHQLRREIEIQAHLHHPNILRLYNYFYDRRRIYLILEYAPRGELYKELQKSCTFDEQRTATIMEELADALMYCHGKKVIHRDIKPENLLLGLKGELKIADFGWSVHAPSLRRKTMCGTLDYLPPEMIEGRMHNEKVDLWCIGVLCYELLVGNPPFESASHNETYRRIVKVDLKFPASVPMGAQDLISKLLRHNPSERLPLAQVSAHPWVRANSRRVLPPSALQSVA
Could you give me the number in %? Just the number is fine.

In the examples that follow, each entry is paired with its recorded % activity.
INSERT INTO assay_data (seq_text, experimental_value) VALUES
  ('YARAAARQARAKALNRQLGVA (Mammalian) [MMI-0200]', 166),
  ('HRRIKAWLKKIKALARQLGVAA (Mammalian) [MMI-0500]', 5);

I have this sequence here, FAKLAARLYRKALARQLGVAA [MMI-0300] , and I need its recorded % activity.
128

I have this sequence here, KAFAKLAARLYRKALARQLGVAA [MMI-0400] , and I need its recorded % activity.
150

====

biological target: Fms (h) (Homo sapiens); assay: Kinase Profiling Assay; assay type: biochemical; conditions: 100 μM
Catalogue of % activity values
Could you give me the number in %? Just the number is fine.

Item: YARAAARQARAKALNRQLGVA (Mammalian) [MMI-0200] Test system: Fms (h) (Homo sapiens) Read-out: % activity Value: ?
92

====

biological target: EGFR (h) (Homo sapiens); construct: purchased Millipore; experiment: Kinase Profiling Assay; type: biochemical; conditions: 100 μM
Catalogue of % activity values
Could you give me the number in %? Just the number is fine.

INSERT INTO results (seq_text, study_target, experimental_value) VALUES
  ('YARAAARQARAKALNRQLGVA (Mammalian) [MMI-0200]', 'EGFR (h) (Homo sapiens)', 83),
  ('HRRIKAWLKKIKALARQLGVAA (Mammalian) [MMI-0500]', 'EGFR (h) (Homo sapiens)', '−1'),
  ('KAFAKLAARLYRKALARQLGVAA [MMI-0400]', 'EGFR (h) (Homo sapiens)', 16);

I have this sequence here, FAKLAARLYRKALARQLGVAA [MMI-0300] , and I need its recorded % activity.
21
